Multiple publications report Ki for Chymotrypsinogen B (Homo sapiens); what follows is a combined list.
Quantity: Ki (nM)

Molecule	Tested on	Ki (nM)
CC(=O)NC(Cc1ccccc1)B(O)O (stereo not given)	Chymotrypsinogen B (Homo sapiens)	6500
CC(C)C[C@H](NC(=O)[C@H](Cc1ccccc1)NC(=O)c1cnccn1)B(O)O	Chymotrypsinogen B (Homo sapiens)	320

a: O=C(NC(B(F)F)c1ccccc1)c1ccccc1 (stereo not given)
b: COC(=O)CCC(=O)N[C@@H](C)C(=O)N[C@@H](C)C(=O)N1CCC[C@H]1C(=O)N[C@@H](Cc1ccccc1)C(=O)C(=O)OC
c: O=C(NC(Cc1ccccc1)B(F)F)c1ccccc1 (stereo not given)
Rank items: key Ki, increasing. Field: ranking. Enter the labels in the order requested. b, c, a

a: COc1ccc(-n2nc(C(N)=O)c3ncn(-c4ccc(-c5ccccc5CN5CCCC5)cc4F)c(=O)c32)cc1
b: CC(=O)N[C@@H](Cc1ccccc1)B(F)F
Form: Entry with minimum Ki (choose one): a / b Choose, then provide that item's label. a

A: CC(NC(=O)OCc1ccccc1)C(=O)NC(B(F)F)c1ccccc1 (stereo not given)
B: Cc1nn(-c2ccc3onc(N)c3c2)c2c(=O)n(-c3ccc(-c4ccccc4CN4CC[C@@H](O)C4)cc3)c(C)nc12
A or B : whose Ki is greater? Choose, then provide that item's label. A
(A: 2000 nM, B: 580 nM)

* * *

Multiple publications report Ki for Chymotrypsinogen B (Homo sapiens); what follows is a combined list.
Quantity: Ki (µM)

See these solved cases before continuing.
Compound	Quantity	Endpoint result
O=C(NC(Cc1ccccc1)B(O)O)c1ccccc1 (stereo unspecified)	Ki	0.65
Cc1cc2cc(NC(=N/[C@H]3CCCCN(CC(=O)N4CCCC4)C3=O)/C(C#N)=C(\O)OCCCCO)ccc2o1	Ki	9.42

P: O=C(N[C@@H](Cc1ccccc1)B(F)F)c1ccccc1
Q: Nc1noc2ccc(-n3nc(C(F)(F)F)c4c3C(=O)N(c3ccc(-c5ccccc5CN5CC[C@@H](O)C5)cc3)CN4)cc12
R: CC(=O)NC(Cc1ccccc1)B(F)F (stereo unspecified)
List from greatest to least Ki. Field: ranking. Enter the labels in the order requested. R, Q, P

* * *

Multiple publications report Ki for Chymotrypsinogen B (Homo sapiens); what follows is a combined list.

See these solved cases before continuing.
Compound	Ki
CCCC(NC(=O)[C@@H]1C2CCCC2CN1C(=O)[C@@H](NC(=O)[C@@H](NC(=O)c1cnccn1)C1CCCCC1)C(C)(C)C)C(=O)C(=O)N[C@H](C)CC (stereo partly specified)	> 50 µM
Cc1nc2c(C(F)(F)F)nn(-c3ccc4onc(N)c4c3)c2c(=O)n1-c1ccc(-c2ccccc2CN(C)C)cc1	> 11 µM
CCC[C@H](NC(=O)[C@@H]1C2CCCC2CN1C(=O)[C@@H](NC(=O)[C@@H](NC(=O)c1cnccn1)C(C)(C)C)C(C)(C)C)C(=O)C(=O)NC1CC1 (stereo partly specified)	> 50 µM
O=C1O[C@H](CBr)[C@H]1Cc1ccccc1	2.55 µM

Query (compound): CCCC(NC(=O)[C@@H]1[C@H]2CCC[C@H]2CN1C(=O)[C@@H](NC(=O)[C@@H](NC(=O)c1cnccn1)C(C)C)C(C)(C)C)C(=O)C(=O)NC1CC1 (stereo partly specified) ; field requested: Ki > 50 µM

Query (compound): CCC[C@H](NC(=O)[C@@H]1C2CCCC2CN1C(=O)[C@@H](NC(=O)[C@@H](NC(=O)c1cnccn1)[C@@H](C)OC)C(C)(C)C)C(=O)C(=O)NC1CC1 (stereo partly specified) ; field requested: Ki > 50 µM
